These entries and their values trace back to the Human Domainome abundance scans (Beltran et al. 2025).

B1: CD2-associated protein, residues 271 to 331; numbered along this chain, Q9Y5K6 (parent)
chain: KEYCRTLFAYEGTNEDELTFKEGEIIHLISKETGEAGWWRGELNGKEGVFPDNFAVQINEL

variants of: B1; experiment: abundance fitness (aPCA) (normalised: wild type 0, dead -1); higher = more abundant; growth selection in yeast, the domain comes from the species named; details: Homo sapiens
endpoint-label: abundance fitness
Answers are plain numbers.

Illustrative cases are given below, each with its answer.
mutation: E42C
number: -0.201

mutation: G23W
number: -0.532

mutation: Y10P
number: -0.79

Respectfully, I request abundance fitness for each entry included below.
1. E15K
2. K31R
3. C4I

Completion:
1. -0.268
2. 0.017
3. -0.113

Respectfully, I request abundance fitness for each entry included below.
1. L7D
2. E47W
3. E32L
4. V56M

Completion:
1: -0.426; 2: -0.601; 3: -0.481; 4: -0.073
